# ASSAYED TARGET: Plasma kallikrein (Homo sapiens)
# Sequence (P03952 20-390 limits assumed): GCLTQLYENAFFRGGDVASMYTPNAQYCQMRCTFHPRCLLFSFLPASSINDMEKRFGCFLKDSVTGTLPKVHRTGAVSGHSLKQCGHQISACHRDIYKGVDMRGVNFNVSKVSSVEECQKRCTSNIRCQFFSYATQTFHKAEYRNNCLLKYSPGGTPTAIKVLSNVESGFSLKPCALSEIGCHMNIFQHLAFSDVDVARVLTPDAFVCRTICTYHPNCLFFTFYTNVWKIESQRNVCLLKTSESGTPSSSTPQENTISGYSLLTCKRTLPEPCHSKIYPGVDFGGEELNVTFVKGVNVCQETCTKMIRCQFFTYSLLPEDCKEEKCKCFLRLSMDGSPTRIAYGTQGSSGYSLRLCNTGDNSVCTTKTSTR
# Sequence (P03952 391-638 limits assumed): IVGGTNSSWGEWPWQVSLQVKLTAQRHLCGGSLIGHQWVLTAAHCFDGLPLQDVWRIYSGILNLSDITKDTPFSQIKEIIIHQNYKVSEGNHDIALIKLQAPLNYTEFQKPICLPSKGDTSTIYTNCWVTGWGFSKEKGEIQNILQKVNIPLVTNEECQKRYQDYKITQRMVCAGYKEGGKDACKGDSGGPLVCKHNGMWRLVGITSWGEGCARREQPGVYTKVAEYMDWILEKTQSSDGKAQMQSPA
# EXPERIMENT SUMMARY: Inhibition of human kallikrein
MEASURED PARAMETER: Ki
Remember to follow the number with its unit.

Task item: Returns the measured Ki for the input compound. Input: Cc1cc(N2CCC(N(C)C(=O)CCS(=O)(=O)c3ccc4cc(Cl)ccc4c3)CC2)ccn1
Reply: 3 µM

====

# Tested on: Plasma
# EXPERIMENT SUMMARY: Anticoagulant potency in mouse plasma assessed as concentration required to double prothrombin time after 4 mins
# Assay type: functional
MEASURED PARAMETER: Activity (µM)
Reply numerically in µM, unit not repeated.

COMPOUND: CN(C(=O)CCS(=O)(=O)c1ccc2cc(Cl)ccc2c1)C1CCN(c2ccncc2)CC1
MEASURED NUMBER: 8

Task item: Returns the measured Activity for the input compound. Input: CN(CCCS(=O)(=O)c1ccc2cc(Cl)ccc2c1)C(=O)C1CCN(c2ccncc2)CC1
Reply: 17

Task item: Returns the measured Activity for the input compound. Input: Cc1cc(N2CCC(N(C)C(=O)CCS(=O)(=O)c3ccc4cc(Cl)ccc4c3)CC2)ccn1
Reply: 4.8

Task item: Returns the measured Activity for the input compound. Input: CN(C(=O)CCS(=O)(=O)c1ccc2cc(Cl)ccc2c1)C1CCN(c2ccnc(CO)c2)CC1
Reply: 6.4

Task item: Returns the measured Activity for the input compound. Input: CCOC(=O)CN(CCCS(=O)(=O)c1ccc2cc(Cl)ccc2c1)C(=O)C1CCN(c2ccncc2)CC1
Reply: 11

Task item: Returns the measured Activity for the input compound. Input: CCOC(=O)CCN(C(=O)CCS(=O)(=O)c1ccc2cc(Cl)ccc2c1)C1CCN(c2ccncc2)CC1
Reply: 14

Task item: Returns the measured Activity for the input compound. Input: NCCN(C(=O)CCS(=O)(=O)c1ccc2cc(Cl)ccc2c1)C1CCN(c2ccncc2)CC1
Reply: 8.6

Task item: Returns the measured Activity for the input compound. Input: CC(=N)N1CC[C@H](Oc2ccc([C@H](Cc3ccc4ccc(C(=N)N)cc4c3)C(=O)O)cc2)C1 [DX-9065A]
Reply: 6.8

Task item: Returns the measured Activity for the input compound. Input: Cc1cc(N2CCC(N(C)C(=O)CCS(=O)(=O)c3ccc4cc(Cl)ccc4c3)CC2)cc(C)n1
Reply: 4.1

Task item: Returns the measured Activity for the input compound. Input: O=C(O)CN(CCCS(=O)(=O)c1ccc2cc(Cl)ccc2c1)C(=O)C1CCN(c2ccncc2)CC1
Reply: 14

Task item: Returns the measured Activity for the input compound. Input: CCOC(=O)CN(C(=O)CCS(=O)(=O)c1ccc2cc(Cl)ccc2c1)C1CCN(c2ccncc2)CC1
Reply: 10
